System: U251 CNS
Assay Procedure: NCI-60 one-dose screen, 48 h
Test Context: 10 µM unless noted
About 83,000 compounds went through this panel and 20% of them were active in at least one assay; those are over-represented in the sample as a whole. Calls of active or inactive are those of the source. The calls were made as follows: active = growth percent below 10; inactive = the rest.
Choose one outcome from this list and give only that: Y for active, N for inactive

Worked examples, 10 compounds total:
CC(=O)N1N=C(c2ccc(Nc3nc(Nc4ccc(F)cc4)nc(Nc4ccc(F)cc4)n3)cc2)CC1c1ccccc1 (configuration not stated); N
CC12OC(CC(O)C1O)n1c3ccccc3c3c4c(c5c6ccccc6n2c5c31)C(=O)N(CCN1CCOCC1)C4=O (configuration not stated); Y
C=C(CNCCc1ccc(O)cc1)[C@@H]1CC[C@]2(CO)CC[C@]3(C)[C@H](CC[C@@H]4[C@@]5(C)CCC(NCCc6ccc(O)cc6)C(C)(C)[C@@H]5CC[C@]43C)[C@@H]12 (some centres not stated); Y
O=C1C(c2c[nH]c3ccccc23)=C(c2coc3cc(Br)ccc23)C(=O)N1O; N
O=C1OCC2=C1C(c1cccc(C(F)(F)F)c1)c1cc3c(cc1N2CCO)OCCO3 (configuration not stated); N
COc1ccc(-c2nn3c(-c4cc(F)c(Cl)cc4Cl)nnc3s2)cc1; N
Cc1ccc(S(=O)(=O)OC[C@@]2(C)CC[C@]3(C)CC[C@]4(C)C(=C3C2)C=C[C@@H]2[C@@]3(C)CCCNC(C)(C)[C@@H]3CC[C@]24C)cc1; Y
COc1ccc(/C(C)=C(\c2ccc(OCCN3CCOCC3)cc2)c2ccc(OC(=O)C3CCCCC3)cc2)cc1; N
O=C(CCCOc1ccc(Br)cc1)Nc1ncc(Cc2ccc(F)cc2)s1; N
O=C(c1ccc(Nc2nccc(NCCCNc3ccnc4cc(Cl)ccc34)n2)cc1)N1CCCCC1; N

How was N=C(N)c1ccc(-c2ccc(-c3ccc(F)cc3)s2)nc1 classified in this test?
N

What classification did COc1cc(N=Nc2ccc(O)c3ncccc23)c2ncccc2c1 end up with in this test?
N

Any idea what this test logged for COc1ccc(C2Nc3nc(SC)nc(N)c3N=C3c4ccccc4CCC32)cc1 (configuration not stated) ?
N

So what was the verdict on COc1nc2ccc(C)cc2cc1/C=[N+](\[O-])c1ccccc1 in this test?
N

Status in this test for CN(C)C1CCN(C(=O)c2ccc(NC(=O)Nc3ccc(-c4nc(N5CCOCC5)c5cccn5n4)cc3)cc2)CC1 ?
Y

Recorded test outcome, item Cc1ccc(-c2nc([P+](c3ccccc3)(c3ccccc3)c3ccccc3)c(Nc3ccccc3)o2)cc1
Y

Hi, do you know how COc1ccc(-c2ccc(-c3ccc(C(=N)N)cn3)s2)cc1Cl came out in this test?
Y

Name the outcome recorded for Cc1ccc(NC(=O)c2sc3nc(C)c(C(=O)c4ccccc4)cc3c2N)cc1 in the assay.
N

Entry O=C1c2cc3c(cc2-c2c1c1ccc(Cl)cc1c(=O)n2CCCn1ccnc1)OCO3 : call = ?
Y

Assay result, entry NC(=O)c1c(NC(=O)/C=C/c2cccs2)sc2c1CCC(=O)C2 — outcome?
N

---

Tested on: SF-539 CNS
Assay Procedure: NCI-60 one-dose screen, 48 h (100 = growth as untreated, 0 = no growth, -100 = all killed)
Test Context: 10 µM unless noted
Experimental: Cells are grown in 96 well plates and exposed to the test compound for 48 hours. Compounds are tested at a single concentration, which is 10^-5 M for most compounds. The reported endpoint is percent growth (GI% or GIPRCNT), where numbers from 0 - 100% represent growth inhibition, and numbers from -100% - 0 represent cell death. For example, a value of 40 represents 60% growth inhibition. A value of 0 means no net growth occurred over the course of the experiment. […]
About 83,000 compounds went through this panel and 20% of them were active in at least one assay; those are over-represented in the sample as a whole.
Measurement Label: growth (%)
Give your result in % as a bare value.

Observe how each entry below is paired with its result.
O=C(Cn1cc(CN2CCN(c3ccnc4cc(Cl)ccc34)CC2)nn1)Nc1cccc([N+](=O)[O-])c1; 88.7
COC(=O)c1[nH]nc(OC)c1C1(C(C#N)c2nc3ccccc3s2)CCCc2ccccc21 (centres undefined); 106

Measured growth of O=C(Nc1ccc(F)cc1)c1cc2cc(Nc3nc(-c4ccccc4)nc4ccccc34)ccc2oc1=O : 108

Sure, the documented growth for COc1ccc(Oc2nc(Nc3ccc(N4CCOCC4)cc3)ncc2NC(=O)c2cccc(C(F)(F)F)c2)cc1 is 77.3

# growth of O=C(Nc1ccc2ncsc2c1)c1csc(Nc2ccc3[nH]ncc3c2)n1 = 22.9

What the record says about O=C(Cc1ccc(F)cc1)c1ccccc1 : growth is 113

Documented growth of C[N+]1=C(/C=C\C=C\c2ccccc2)C(C)(C)c2ccccc21 : 8.59

The value of growth measured for the molecule O=C([C@H]1C[C@H]1c1ccc(S(F)(F)(F)(F)F)cc1)N1CCN(c2cc(Cl)ccc2C(F)(F)F)CC1 turned out to be 107

Entry Cc1n(Cc2ccc3ccccc3c2)c(Cl)c(Cl)[n+]1Cc1ccc2ccccc2c1 — recorded growth = 54.4
